# assay.remarks: Stability in CWE with protease inhibitor cocktail (PIC), capillary zone electrophoresis
# Format: in vitro ADME, human
# test.parameters: 1 mg/ml in PBS mixed 1:1 with CWE (1 mg/ml protein, pool of 5 donors) in PBS containing PIC (final 1:140 v/v), 37°C, 96 h; CZE, ratio to imidazole, 0 h = 100%; experiment 2 of 3
Where no end group is shown, it is not given here.
For each record, write down the corresponding Percentage intact, CWE + PIC 96h.
Please reply with the bare figure in % and do not write the unit itself.

Percentage intact, CWE + PIC 96h lookup needed for RKFHEKHHSHREFPFYGDYGSNYLYDN [Hst2] , thanks.
62.3087

Percentage intact, CWE + PIC 96h lookup needed for SHREFPFYGDYGS [mad-Hst1] , thanks.
71.7331

Percentage intact, CWE + PIC 96h lookup needed for cyclo(DNLPETGGDSHEKRHHGYRRKFHEKHHSHREFPFYGDYGSNYLY) [cHst1] , thanks.
57.4907

Percentage intact, CWE + PIC 96h lookup needed for DSHEKRHHGYRRKFHEKHHSHREFPFYGDYGSNYLYDN [Hst1] , thanks.
30

====

# assay.remarks: Stability in CWE with protease inhibitor cocktail (PIC), capillary zone electrophoresis
# Assay type: in vitro ADME, human
# test.parameters: 1 mg/ml in PBS mixed 1:1 with CWE (1 mg/ml protein, pool of 5 donors) in PBS containing PIC (final 1:140 v/v), 37°C, 16 h; CZE, ratio to imidazole, 0 h = 100%; experiment 3 of 3
# Experimental: Debridement tissue was obtained from chronic ulcers of 15 patients with therapy resistant (arterio-venous) leg ulcers, according to procedures described earlier. […] Total protein content of the supernatant was measured using the BioRad Protein Assay (BioRad Laboratories, Hercules, California, USA) essentially as described by the supplier. […]
Where no end group is shown, it is not given here.
readout.name: Percentage intact, CWE + PIC 16h (%)
Please reply with the bare figure in % and do not write the unit itself.

Percentage intact, CWE + PIC 16h lookup needed for SHREFPFYGDYGS [mad-Hst1] , thanks.
87.9983

Percentage intact, CWE + PIC 16h lookup needed for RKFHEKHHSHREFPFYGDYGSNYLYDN [Hst2] , thanks.
78.2959

Percentage intact, CWE + PIC 16h lookup needed for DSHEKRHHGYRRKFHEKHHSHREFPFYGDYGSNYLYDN [Hst1] , thanks.
70.9806

Percentage intact, CWE + PIC 16h lookup needed for cyclo(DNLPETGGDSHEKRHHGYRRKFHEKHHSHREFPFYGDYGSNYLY) [cHst1] , thanks.
77.3109

====

For each record, write down the corresponding Percentage intact, CWE + PIC 8h.
# assay.remarks: Stability in CWE with protease inhibitor cocktail (PIC), capillary zone electrophoresis
# Format: in vitro ADME, human
# test.parameters: 1 mg/ml in PBS mixed 1:1 with CWE (1 mg/ml protein, pool of 5 donors) in PBS containing PIC (final 1:140 v/v), 37°C, 8 h; CZE, ratio to imidazole, 0 h = 100%; experiment 3 of 3
Where no end group is shown, it is not given here.
Please reply with the bare figure in % and do not write the unit itself.

Percentage intact, CWE + PIC 8h lookup needed for SHREFPFYGDYGS [mad-Hst1] , thanks.
95.5781

Percentage intact, CWE + PIC 8h lookup needed for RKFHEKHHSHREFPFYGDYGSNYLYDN [Hst2] , thanks.
85.0239

Percentage intact, CWE + PIC 8h lookup needed for cyclo(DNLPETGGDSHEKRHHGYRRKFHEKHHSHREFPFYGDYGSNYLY) [cHst1] , thanks.
86.6559

Percentage intact, CWE + PIC 8h lookup needed for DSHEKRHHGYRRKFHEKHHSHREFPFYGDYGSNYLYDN [Hst1] , thanks.
82.0587
